All figures here come from ChEMBL document CHEMBL4706474.

assay: Apparent half-life in Sprague-Dawley rat at […], iv administered as infusion for 10 mins by LC-MS analysis; assay type: ADME, organism-based; conditions: in vivo, dose 1.1 mg/kg, read-out: t1/2(app) (converted)
Measured Property: half-life at 10 min (min)
Quick reminder: number only, in min, skip the unit.

Q: Find the measured half-life at 10 min of Cc1cc(NC2CCc3ccc(Br)cc3C2)n2nc(C(C)(F)F)nc2n1 (stereo in doubt) and report it.
A: 366

###

Measured Property: IC50

Q: Report its IC50 with Dihydroorotate dehydrogenase (quinone), mitochondrial (Mus musculus) as the test system: `Cc1cc(NC2Cc3cc(F)c(F)cc3C2)n2nc(C(C)(F)F)nc2n1`
Sequence (O35435 whole entry): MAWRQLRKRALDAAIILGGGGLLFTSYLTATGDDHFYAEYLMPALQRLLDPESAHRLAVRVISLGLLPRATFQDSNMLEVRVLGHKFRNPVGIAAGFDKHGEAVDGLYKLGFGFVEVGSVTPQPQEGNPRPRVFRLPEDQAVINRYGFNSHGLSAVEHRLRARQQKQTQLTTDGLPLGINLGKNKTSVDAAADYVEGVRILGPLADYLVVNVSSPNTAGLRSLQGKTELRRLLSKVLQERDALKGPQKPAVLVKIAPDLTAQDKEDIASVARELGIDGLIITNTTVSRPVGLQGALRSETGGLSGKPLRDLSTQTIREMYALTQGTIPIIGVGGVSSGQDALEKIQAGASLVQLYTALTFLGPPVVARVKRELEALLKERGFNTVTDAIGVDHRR
A: > 100 µM

Q: Report its IC50 with Dihydroorotate dehydrogenase (quinone), mitochondrial (Mus musculus) as the test system: `Cc1cc(N[C@H]2CCc3ccc(Cl)cc3C2)n2nc(C(C)(F)F)nc2n1`
A: > 100 µM

###

experiment: Intrinsic clearance in mouse liver microsomes at 1 uM by LC-MS analysis; format: ADME, Microsome
// boundary case: intrinsic clearance equal to 30 µL/min maps to Not met; strictly smaller maps to Met

Q: A record lists `Cc1cc(NC2Cc3ccccc3C2)n2nc(C(C)(F)F)nc2n1` . Is its intrinsic clearance below 30 µL/min?
A: Not met

Q: A record lists `Cc1cc(Nc2ccc(S(F)(F)(F)(F)F)cc2)n2nc(C(C)(F)F)nc2n1` . Is its intrinsic clearance below 30 µL/min?
A: Met

Q: A record lists `Cc1cc(N[C@H]2CCc3ccc(Cl)cc3C2)n2nc(C(C)(F)F)nc2n1` . Is its intrinsic clearance below 30 µL/min?
A: Not met

Q: A record lists Cc1cc(NC2CCc3cc(Br)ccc3C2)n2nc(C(C)(F)F)nc2n1 (stereo in doubt) . Is its intrinsic clearance below 30 µL/min?
A: Met

Q: A record lists Cc1cc(NC2CCc3cc(F)ccc3C2)n2nc(C(C)(F)F)nc2n1 (stereo not given) . Is its intrinsic clearance below 30 µL/min?
A: Not met

Q: A record lists Cc1cc(NC2Cc3ccc(Cl)cc3C2)n2nc(C(C)(F)F)nc2n1 (stereo not given) . Is its intrinsic clearance below 30 µL/min?
A: Not met

Q: A record lists `Cc1cc(NC2Cc3c(C)ccc(C)c3C2)n2nc(C(C)(F)F)nc2n1` . Is its intrinsic clearance below 30 µL/min?
A: Not met

Q: A record lists COc1ccc2c(c1)CC(Nc1cc(C)nc3nc(C(C)(F)F)nn13)CC2 (stereo in doubt; 16) . Is its intrinsic clearance below 30 µL/min?
A: Met

Q: A record lists `Cc1cc(NC2Cc3c(F)ccc(F)c3C2)n2nc(C(C)(F)F)nc2n1` . Is its intrinsic clearance below 30 µL/min?
A: Not met

Q: A record lists Cc1cc(NC2CCc3ccc(Br)cc3C2)n2nc(C(C)(F)F)nc2n1 (stereo in doubt) . Is its intrinsic clearance below 30 µL/min?
A: Not met

###

Measured Property: IC50 (nM)
Quick reminder: number only, in nM, skip the unit.

Q: Report its IC50 with Voltage-gated inwardly rectifying potassium channel KCNH2 (Homo sapiens) as the test system: `Cc1cc(N[C@H]2CCc3ccc(Cl)cc3C2)n2nc(C(C)(F)F)nc2n1`
Sequence (Q12809 whole entry): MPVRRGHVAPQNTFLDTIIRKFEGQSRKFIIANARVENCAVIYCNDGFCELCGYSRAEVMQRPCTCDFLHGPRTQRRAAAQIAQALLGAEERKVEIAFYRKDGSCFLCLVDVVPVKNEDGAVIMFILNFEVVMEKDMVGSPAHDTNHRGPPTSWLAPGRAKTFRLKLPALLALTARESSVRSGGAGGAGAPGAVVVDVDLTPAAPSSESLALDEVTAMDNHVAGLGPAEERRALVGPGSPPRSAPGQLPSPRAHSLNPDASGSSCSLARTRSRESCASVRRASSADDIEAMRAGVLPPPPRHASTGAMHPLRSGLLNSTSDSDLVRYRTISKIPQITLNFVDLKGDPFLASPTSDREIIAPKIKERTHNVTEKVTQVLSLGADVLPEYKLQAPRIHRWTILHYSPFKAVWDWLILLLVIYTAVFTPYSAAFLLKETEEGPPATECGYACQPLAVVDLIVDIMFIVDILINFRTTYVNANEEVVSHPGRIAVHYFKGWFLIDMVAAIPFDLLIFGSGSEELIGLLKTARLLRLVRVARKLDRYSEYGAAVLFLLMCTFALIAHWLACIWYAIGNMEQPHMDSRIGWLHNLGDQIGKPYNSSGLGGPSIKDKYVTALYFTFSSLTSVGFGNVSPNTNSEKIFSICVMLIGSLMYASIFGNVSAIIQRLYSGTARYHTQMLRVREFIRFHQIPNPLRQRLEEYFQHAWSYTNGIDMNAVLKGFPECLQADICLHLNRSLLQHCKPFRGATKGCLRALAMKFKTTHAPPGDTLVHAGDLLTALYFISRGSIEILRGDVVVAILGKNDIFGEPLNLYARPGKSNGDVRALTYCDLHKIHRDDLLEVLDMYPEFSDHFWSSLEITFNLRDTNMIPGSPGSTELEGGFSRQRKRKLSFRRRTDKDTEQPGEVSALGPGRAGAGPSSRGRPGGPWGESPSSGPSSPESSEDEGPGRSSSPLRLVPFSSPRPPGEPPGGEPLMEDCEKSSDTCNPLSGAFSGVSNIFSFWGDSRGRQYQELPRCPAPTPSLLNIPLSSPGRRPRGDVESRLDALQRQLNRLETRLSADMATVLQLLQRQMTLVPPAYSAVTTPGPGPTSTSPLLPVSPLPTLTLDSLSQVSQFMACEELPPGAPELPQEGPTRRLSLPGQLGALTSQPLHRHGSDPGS
A: 1500

###

experiment: AUC (0 to infinity) in Sprague-Dawley rat at 21.3 mg/kg, po measured over 24 hrs by LC-MS analysis; assay type: ADME, organism-based; set-up: route oral, dose 21.3 mg/kg, time >24; details: in vivo
Measured Property: AUC(0-inf) (µM·h)
Quick reminder: number only, in µM·h, skip the unit.

Q: Find the measured AUC(0-inf) of `Cc1cc(NC2Cc3cc(F)c(F)cc3C2)n2nc(C(C)(F)F)nc2n1` and report it.
A: 202

###

assay: Protein binding in Swiss mouse plasma at 10 mg/kg, po administered as single dose via gavage measured over 24 hrs by LC-MS analysis; format: ADME, organism-based; settings: read-out: PPB (converted)
Measured Property: fraction unbound at 24 h

Q: Find the measured fraction unbound at 24 h of `Cc1cc(Nc2ccc(S(F)(F)(F)(F)F)cc2)n2nc(C(C)(F)F)nc2n1` and report it.
A: 0.003

###

Exercise: for every item that follows, state its recorded solubility kinetic at 0.5 h.
assay: Kinetic solubility of compound in phosphate buffer at pH 6.5 measured after 30 mins by HPLC-UV based analysis; format: physicochemical; conditions: phosphate buffer, pH 6.5, read-out: Kinetic_solubility
Quick reminder: number only, in µg/mL, skip the unit.

Q: Find the measured solubility kinetic at 0.5 h of Cc1cc(NC2Cc3cccc(C(F)(F)F)c3C2)n2nc(C(C)(F)F)nc2n1 (stereo unspecified) and report it.
A: 6.3

Q: Find the measured solubility kinetic at 0.5 h of `Cc1cc(N[C@H]2CCc3ccc(Cl)cc3C2)n2nc(C(C)(F)F)nc2n1` and report it.
A: 3.1

Q: Find the measured solubility kinetic at 0.5 h of COc1ccc2c(c1)CC(Nc1cc(C)nc3nc(C(C)(F)F)nn13)CC2 (stereo in doubt; 16) and report it.
A: 12.5

Q: Find the measured solubility kinetic at 0.5 h of `Cc1cc(NC2Cc3c(F)ccc(F)c3C2)n2nc(C(C)(F)F)nc2n1` and report it.
A: 6.3

Q: Find the measured solubility kinetic at 0.5 h of Cc1cc(NC2CCc3cc(F)c(C(F)(F)F)cc3C2)n2nc(C(C)(F)F)nc2n1 (stereo unspecified) and report it.
A: 3.1

Q: Find the measured solubility kinetic at 0.5 h of `Cc1cc(NC2Cc3ccccc3C2)n2nc(C(C)(F)F)nc2n1` and report it.
A: 25

Q: Find the measured solubility kinetic at 0.5 h of Cc1cc(NC2CCc3cc(C(F)(F)F)c(F)cc3C2)n2nc(C(C)(F)F)nc2n1 (stereo unspecified) and report it.
A: 1.6

Q: Find the measured solubility kinetic at 0.5 h of Cc1cc(NC2CCc3ccc(Br)cc3C2)n2nc(C(C)(F)F)nc2n1 (stereo in doubt) and report it.
A: 1.6

Q: Find the measured solubility kinetic at 0.5 h of `Cc1cc(NC2Cc3c(C)ccc(C)c3C2)n2nc(C(C)(F)F)nc2n1` and report it.
A: 6.3

Q: Find the measured solubility kinetic at 0.5 h of Cc1cc(NC2CCc3cc(Br)ccc3C2)n2nc(C(C)(F)F)nc2n1 (stereo in doubt) and report it.
A: 3.1

Q: Find the measured solubility kinetic at 0.5 h of Cc1cc(NC2CCc3cc(Cl)ccc3C2)n2nc(C(C)(F)F)nc2n1 (stereo in doubt) and report it.
A: 3.1

Q: Find the measured solubility kinetic at 0.5 h of Cc1cc(NC2Cc3cccc(F)c3C2)n2nc(C(C)(F)F)nc2n1 (stereo unspecified) and report it.
A: 12.5

Q: Find the measured solubility kinetic at 0.5 h of Cc1cc(NC2CCc3cc(F)ccc3C2)n2nc(C(C)(F)F)nc2n1 (stereo unspecified) and report it.
A: 6.3

Q: Find the measured solubility kinetic at 0.5 h of Cc1cc(NC2CCc3ccc(Cl)cc3C2)n2nc(C(F)(F)F)nc2n1 (stereo in doubt; 24) and report it.
A: 1.6

Q: Find the measured solubility kinetic at 0.5 h of `Cc1cc(NC2Cc3cc(F)c(F)cc3C2)n2nc(C(C)(F)F)nc2n1` and report it.
A: 6.3

Q: Find the measured solubility kinetic at 0.5 h of Cc1cc(NC2Cc3ccc(Cl)cc3C2)n2nc(C(C)(F)F)nc2n1 (stereo unspecified) and report it.
A: 6.3

###

test: in vivo; conditions: Sprague-Dawley, rat, po, 18.2 mg/kg
Measured Property: Tmax at 24 h (h)
Quick reminder: number only, in h, skip the unit.

Q: Find the measured Tmax at 24 h of Cc1cc(NC2CCc3cc(Cl)ccc3C2)n2nc(C(C)(F)F)nc2n1 (stereo in doubt) and report it.
A: 4

###

assay: in vivo; settings: Sprague-Dawley, rat, po, 24.4 mg/kg
Measured Property: Tmax at 24 h (h)
Quick reminder: number only, in h, skip the unit.

Q: Find the measured Tmax at 24 h of Cc1cc(NC2CCc3cc(Br)ccc3C2)n2nc(C(C)(F)F)nc2n1 (stereo in doubt) and report it.
A: 2.5

###

assay: Solubility of compound in 0.1 N HCl measured after 5 to 6 hrs by HPLC-UV based analysis; format: physicochemical; settings: buffer; time 5-6 hrs
Exercise: for every item that follows, state its recorded solubility.
Quick reminder: number only, in µg/mL, skip the unit.

Q: Find the measured solubility of Cc1cc(NC2CCc3ccc(Br)cc3C2)n2nc(C(C)(F)F)nc2n1 (stereo in doubt) and report it.
A: 52

Q: Find the measured solubility of Cc1cc(Nc2ccc(S(F)(F)(F)(F)F)cc2)n2nc(C(C)(F)F)nc2n1 [DSM-265] and report it.
A: 6.8

Q: Find the measured solubility of `Cc1cc(N[C@H]2CCc3ccc(Cl)cc3C2)n2nc(C(C)(F)F)nc2n1` and report it.
A: 105

Q: Find the measured solubility of `Cc1cc(NC2Cc3cc(F)c(F)cc3C2)n2nc(C(C)(F)F)nc2n1` and report it.
A: 180

Q: Find the measured solubility of Cc1cc(NC2CCc3cc(Br)ccc3C2)n2nc(C(C)(F)F)nc2n1 (stereo in doubt) and report it.
A: 189
